FYI, the data here is from ChEMBL document CHEMBL4765486.

Below are IC50 values recorded for Vitamin D3 receptor (Homo sapiens).
Answer with a number only, understood to be in nM.

CCn1cc(C(CC)(CC)c2ccc(OCC(C)O)c(C)c2)cc1C(=O)NCC(O)CO (configuration not stated): 81.6

Here is another compound to look at.
Please look at CCN(CC)CCCNC(=O)c1ccc(C(CC)(CC)c2ccc(OCCC(C)(C)O)c(C)c2)n1CC and tell me its recorded IC50 on Vitamin D3 receptor (Homo sapiens).
92.5

---

Target Entity: Vitamin D3 receptor (Homo sapiens) (UniProt P11473)
Assay Overview: Binding affinity to VDR (unknown origin) at 1 uM by fluorescence polarization assay relative to calcipotriol
Test Context: filed as agonist
Experimental Endpoint: RBA
Express your answer as a number followed by its unit.

CCC(O)COc1ccc(C(CC)(CC)c2cc(C(=O)NCCCN(CC)CC)n(CC)c2)cc1C (stereo not given): 64%
CCn1cc(C(CC)(CC)c2ccc(OCC(C)O)c(C)c2)cc1C(=O)NCCCN(CCO)CCO (stereo not given): 70%
CCN(CC)CCCNC(=O)c1cc(C(CC)(CC)c2ccc(OCC(O)C3CC3)c(C)c2)cn1CC (stereo not given): 40%

Please look at CCn1cc(C(CC)(CC)c2ccc(OCC(C)O)c(C)c2)cc1C(=O)NCC(O)CO (stereo not given) and tell me its recorded RBA on Vitamin D3 receptor (Homo sapiens) (UniProt P11473).
86%

Please look at CCN(CC)CCCNC(=O)c1ccc(C(CC)(CC)c2ccc(OCC(O)c3ccccc3)c(C)c2)n1CC (stereo not given) and tell me its recorded RBA on Vitamin D3 receptor (Homo sapiens) (UniProt P11473).
75%

Please look at CCN(CC)CCCNC(=O)c1cc(C(CC)(CC)c2ccc(OCC(C)O)c(C)c2)cn1CC (stereo not given) and tell me its recorded RBA on Vitamin D3 receptor (Homo sapiens) (UniProt P11473).
78%

Please look at CCn1c(C(=O)NCCN(C)C)ccc1C(CC)(CC)c1ccc(OCCC(C)(C)O)c(C)c1 and tell me its recorded RBA on Vitamin D3 receptor (Homo sapiens) (UniProt P11473).
48%

Please look at CCn1cc(C(CC)(CC)c2ccc(OCC(C)O)c(C)c2)cc1C(=O)NCC1CCOCC1 (stereo not given) and tell me its recorded RBA on Vitamin D3 receptor (Homo sapiens) (UniProt P11473).
67%

Please look at CCN(CC)CCCNC(=O)c1cc(C(CC)(CC)c2ccc(OCCC(O)(CC)CC)c(C)c2)cn1CC and tell me its recorded RBA on Vitamin D3 receptor (Homo sapiens) (UniProt P11473).
51%

Please look at CCN(CC)CCNC(=O)c1ccc(C(CC)(CC)c2ccc(OCCCCC(O)(CC)CC)c(C)c2)n1CC and tell me its recorded RBA on Vitamin D3 receptor (Homo sapiens) (UniProt P11473).
71%

---

Overview of reported RBA across a group of compounds:
Target Entity: Vitamin D3 receptor (Homo sapiens) (UniProt P11473)
Sequence (whole entry): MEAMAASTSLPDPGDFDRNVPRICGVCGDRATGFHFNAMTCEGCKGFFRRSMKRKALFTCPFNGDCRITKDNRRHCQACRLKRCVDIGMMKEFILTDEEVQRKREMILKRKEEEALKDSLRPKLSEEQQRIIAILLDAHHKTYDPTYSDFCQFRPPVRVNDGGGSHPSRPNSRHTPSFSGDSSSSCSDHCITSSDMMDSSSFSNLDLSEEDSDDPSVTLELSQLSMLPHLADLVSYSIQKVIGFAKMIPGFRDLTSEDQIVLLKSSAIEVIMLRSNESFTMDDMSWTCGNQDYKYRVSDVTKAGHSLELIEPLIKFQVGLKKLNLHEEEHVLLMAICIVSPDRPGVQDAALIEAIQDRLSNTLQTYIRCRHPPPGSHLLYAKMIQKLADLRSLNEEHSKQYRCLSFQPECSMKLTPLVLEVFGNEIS
Assay Overview: Binding affinity to VDR (unknown origin) at 1 uM by fluorescence polarization assay relative to calcipotriol
Answer with a number only, understood to be in %.

Please review the following examples before continuing.
CCN(CC)CCCNC(=O)c1cc(C(CC)(CC)c2ccc(OCCCC(C)(C)O)c(C)c2)cn1CC: 24
CCN(CC)CCCNC(=O)c1cc(C(CC)(CC)c2ccc(OCCCCCC(O)(CC)CC)c(C)c2)cn1CC: 32
CCN(CC)CCCNC(=O)c1ccc(C(CC)(CC)c2ccc(OCCCC(C)(C)O)c(C)c2)n1CC: 33

Here is another compound to look at.
Give recorded RBA. CCN(CC)CCCNC(=O)c1ccc(C(CC)(CC)c2ccc(OCCCCCC(O)(CC)CC)c(C)c2)n1CC
33

---

Overview of reported RBA across a group of compounds:
Target Entity: Vitamin D3 receptor (Homo sapiens)
Assay Overview: Binding affinity to VDR (unknown origin) at 1 uM by fluorescence polarization assay relative to calcipotriol
Test Context: filed as agonist
Express your answer as a number followed by its unit.

CCn1c(C(=O)NCCCN2CCN(C)CC2)ccc1C(CC)(CC)c1ccc(OCCC(C)(C)O)c(C)c1: 54%

Please look at CCN(CC)CCCNC(=O)c1cc(C(CC)(CC)c2ccc(OCCC(C)(C)O)c(C)c2)cn1CC and tell me its recorded RBA on Vitamin D3 receptor (Homo sapiens).
67%

Please look at CCN(CC)CCCNC(=O)c1cc(C(CC)(CC)c2ccc(OCCCC(O)(CC)CC)c(C)c2)cn1CC and tell me its recorded RBA on Vitamin D3 receptor (Homo sapiens).
46%

Please look at CCn1c(C(=O)NCC2CCCO2)ccc1C(CC)(CC)c1ccc(OCCC(C)(C)O)c(C)c1 (stereo not drawn) and tell me its recorded RBA on Vitamin D3 receptor (Homo sapiens).
59%

Please look at CCN(CC)CCNC(=O)c1cc(C(CC)(CC)c2ccc(OCCC(O)(CC)CC)c(C)c2)cn1CC and tell me its recorded RBA on Vitamin D3 receptor (Homo sapiens).
80%

Please look at CCn1c(C(=O)NCCCN2CCOCC2)ccc1C(CC)(CC)c1ccc(OCCC(C)(C)O)c(C)c1 and tell me its recorded RBA on Vitamin D3 receptor (Homo sapiens).
63%

---

Target Entity: Vitamin D3 receptor (Homo sapiens) (UniProt P11473)
Assay Overview: Binding affinity to VDR (unknown origin) at 1 uM by fluorescence polarization assay relative to calcipotriol
Calls of active or inactive are those of the source. No cut-off for these calls is given here.
Experimental Endpoint: RBA

Please review the following examples before continuing.
CCN(CC)CCNC(=O)c1ccc(C(CC)(CC)c2ccc(OCCCC(O)(CC)CC)c(C)c2)n1CC: 38%
CCN(CC)CCCNC(=O)c1ccc(C(CC)(CC)c2ccc(OCC(C)O)c(C)c2)n1CC (centres undefined): 30%
CCn1cc(C(CC)(CC)c2ccc(OCC(C)O)c(C)c2)cc1C(=O)NCCN1CCCCC1 (centres undefined): inactive
CCC(O)COc1ccc(C(CC)(CC)c2ccc(C(=O)NCCCN(CC)CC)n2CC)cc1C (centres undefined): 28%

Give recorded RBA. CCN(CC)CCCNC(=O)c1ccc(C(CC)(CC)c2ccc(OCCCCCC(C)(C)O)c(C)c2)n1CC
20%

Give recorded RBA. CCN(CC)CCCNC(=O)c1ccc(C(CC)(CC)c2ccc(OCCCC(O)(CC)CC)c(C)c2)n1CC
23%

Give recorded RBA. CCN(CC)CCCNC(=O)c1cc(C(CC)(CC)c2ccc(OCCCCC(O)(CC)CC)c(C)c2)cn1CC
27%

Give recorded RBA. CCN(CC)CCCNC(=O)c1cc(C(CC)(CC)c2ccc(OCCCCC(C)(C)O)c(C)c2)cn1CC
33%

Give recorded RBA. CCN(CC)CCNC(=O)c1cc(C(CC)(CC)c2ccc(OCC(C)O)c(C)c2)cn1CC (centres undefined)
inactive

---

Target Entity: Vitamin D3 receptor (Homo sapiens)
Assay Overview: Binding affinity to VDR (unknown origin) at 1 uM by fluorescence polarization assay relative to calcipotriol
The source made the active and inactive calls. No cut-off for these calls is given here.
Experimental Endpoint: RBA

Please review the following examples before continuing.
CCn1c(C(=O)NCCN2CCCCC2)ccc1C(CC)(CC)c1ccc(OCCC(C)(C)O)c(C)c1: 24%
CCn1c(C(=O)NCCN2CCOCC2)ccc1C(CC)(CC)c1ccc(OCCC(C)(C)O)c(C)c1: 18%
CCN(CC)CCCNC(=O)c1ccc(C(CC)(CC)c2ccc(OCC(O)C3CC3)c(C)c2)n1CC (centres undefined): 39%
CCN(CC)CCCNC(=O)c1cc(C(CC)(CC)c2ccc(OCCCCCC(C)(C)O)c(C)c2)cn1CC: inactive
CCN(CC)CCCNC(=O)c1ccc(C(CC)(CC)c2ccc(OCCCCC(O)(CC)CC)c(C)c2)n1CC: inactive

Give recorded RBA. CCN(CC)CCCNC(=O)c1ccc(C(CC)(CC)c2ccc(OCCCCC(C)(C)O)c(C)c2)n1CC
26%

Give recorded RBA. CCN(CC)CCNC(=O)c1cc(C(CC)(CC)c2ccc(OCCCC(O)(CC)CC)c(C)c2)cn1CC
31%

Give recorded RBA. CCn1cc(C(CC)(CC)c2ccc(OCC(C)O)c(C)c2)cc1C(=O)NCCN1CCOCC1 (centres undefined)
36%

Give recorded RBA. CCN(CC)CCNC(=O)c1ccc(C(CC)(CC)c2ccc(OCCC(C)(C)O)c(C)c2)n1CC
36%
